Biological target: T1, CRBN, Q96SW2;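 note: pooled lentiviral library of zinc finger degron-EGFP fusions in mCherry-positive Jurkat cells, FACS-sorted after compound exposure, with degron abundance counted by next-generation sequencing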
T1 chain: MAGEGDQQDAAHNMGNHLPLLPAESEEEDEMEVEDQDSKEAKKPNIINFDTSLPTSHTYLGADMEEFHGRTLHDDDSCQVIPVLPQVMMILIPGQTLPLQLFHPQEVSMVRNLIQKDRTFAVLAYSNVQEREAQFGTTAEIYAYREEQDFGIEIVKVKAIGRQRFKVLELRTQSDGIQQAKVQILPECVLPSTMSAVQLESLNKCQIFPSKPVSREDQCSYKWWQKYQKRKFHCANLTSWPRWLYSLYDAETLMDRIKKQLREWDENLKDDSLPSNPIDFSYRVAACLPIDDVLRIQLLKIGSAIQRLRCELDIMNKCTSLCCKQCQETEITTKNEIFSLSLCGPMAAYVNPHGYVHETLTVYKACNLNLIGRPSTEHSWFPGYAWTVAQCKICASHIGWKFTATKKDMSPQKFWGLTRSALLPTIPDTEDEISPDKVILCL
Test: log2 fold change of degron read counts, EGFP-low vs EGFP+ sorted cells (limma voom), compound-induced degradation; higher = more compound-induced degradation of the degron-EGFP fusion; degrons are variants of IKZF1/3 zinc finger 2; compound dose not given here
Conditions: Jurkat; 18 h; compound: compound 19 (5-tert-butyl-thalidomide)
Whole data set: some 8,300 sequences, median “log2 fold change of degron read counts, EGFP-low vs EGFP+ sorted cells (limma voom), compound-induced degradation” near -1.1, cut for the highest 2% near 3.2. What follows is part of a selection rich in the highest values, with near analogues and random picks from the rest.
# log2 fold change of degron read counts >= 0.4 gives true, anything below gives false

Prompt: Given the entry FYCEQCGATFTQKGNLLRHIKL [46F_47Y_49E_50Q_52G_53A_54T_55F_67L_, Q9UKT9] , answer whether its log2 fold change of degron read counts meets or surpasses 0.4.
Completion: false

Prompt: Given the entry FRCPVCGACFTQKGNLLRHIKL [46F_47R_49P_50V_52G_53A_54C_55F_67L_, Q9UKT9] , answer whether its log2 fold change of degron read counts meets or surpasses 0.4.
Completion: false

Prompt: Given the entry FLCPICGATFTQKGNLLRHIKL [46F_47L_49P_50I_52G_53A_54T_55F_67L_, Q9UKT9] , answer whether its log2 fold change of degron read counts meets or surpasses 0.4.
Completion: false

Prompt: Given the entry FTCEICGRSFTQKGNLLRHIKL [46F_47T_49E_50I_52G_53R_54S_55F_67L_, Q9UKT9] , answer whether its log2 fold change of degron read counts meets or surpasses 0.4.
Completion: false

Prompt: Given the entry FKCDICGAGFTQKGNLLRHIKL [46F_47K_49D_50I_52G_53A_54G_55F_67L_, Q9UKT9] , answer whether its log2 fold change of degron read counts meets or surpasses 0.4.
Completion: true

Prompt: Given the entry FGCNICGATFTQKGNLLRHIKL [46F_47G_49N_50I_52G_53A_54T_55F_67L_, Q9UKT9] , answer whether its log2 fold change of degron read counts meets or surpasses 0.4.
Completion: false

Prompt: Given the entry FYCPICGATFTQKGNLLRHIKL [46F_47Y_49P_50I_52G_53A_54T_55F_67L_, Q9UKT9] , answer whether its log2 fold change of degron read counts meets or surpasses 0.4.
Completion: true
